# MEASUREMENT_TARGET: FLuc-N-HiBiT (firefly luciferase) (Photinus pyralis, UniProt P08659, form not given/L550V)
# Sequence (P08659 2-550 L550V, form open): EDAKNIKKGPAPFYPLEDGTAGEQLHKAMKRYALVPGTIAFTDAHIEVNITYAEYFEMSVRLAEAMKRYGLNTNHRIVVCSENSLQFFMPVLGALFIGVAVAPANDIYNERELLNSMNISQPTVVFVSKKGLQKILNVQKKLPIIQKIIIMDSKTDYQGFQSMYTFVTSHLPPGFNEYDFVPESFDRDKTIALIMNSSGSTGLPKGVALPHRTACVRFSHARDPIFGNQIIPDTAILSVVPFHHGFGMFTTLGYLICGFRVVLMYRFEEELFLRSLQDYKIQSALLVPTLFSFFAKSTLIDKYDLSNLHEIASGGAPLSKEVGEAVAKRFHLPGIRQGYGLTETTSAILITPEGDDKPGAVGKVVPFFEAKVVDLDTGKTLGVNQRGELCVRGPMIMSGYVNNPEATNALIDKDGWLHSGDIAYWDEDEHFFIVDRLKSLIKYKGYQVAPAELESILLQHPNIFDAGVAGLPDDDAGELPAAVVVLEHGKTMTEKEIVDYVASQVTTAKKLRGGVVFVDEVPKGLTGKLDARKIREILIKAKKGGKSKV
# ASSAY_OVERVIEW: SDR assay, FLuc-N-HiBiT
# ASSAY_SETUP: ATP-independent imidazo[2,1-b]thiazole (clade O) series
VALUE_KIND: pSDR50 (clade O)

What measured pSDR50 (clade O) goes with Fc1ccc(Cc2cn3cc(-c4ccccc4)nc3s2)cc1 ?
5.92

What measured pSDR50 (clade O) goes with Clc1ccc(-c2cn3cc(Cc4ccccc4)sc3n2)cc1 ?
5.57

What measured pSDR50 (clade O) goes with Fc1ccccc1Cc1cn2cc(-c3ccc(Cl)cc3)nc2s1 ?
5.50

What measured pSDR50 (clade O) goes with Cc1ccc(Cc2cn3cc(-c4ccccc4)nc3s2)cc1 ?
5.78

What measured pSDR50 (clade O) goes with Fc1ccc(-c2cn3cc(Cc4ccccc4)sc3n2)cc1 ?
5.73

What measured pSDR50 (clade O) goes with Fc1ccc(Cc2cn3cc(-c4ccc(F)cc4)nc3s2)cc1 ?
6.28

What measured pSDR50 (clade O) goes with Brc1ccc(-c2cn3cc(Cc4ccccc4)sc3n2)cc1 ?
5.89

What measured pSDR50 (clade O) goes with Fc1ccc(-c2cn3cc(Cc4ccccc4Cl)sc3n2)cc1 ?
5.26

What measured pSDR50 (clade O) goes with Clc1ccccc1Cc1cn2cc(-c3ccccc3)nc2s1 ?
5.98

----------
# MEASUREMENT_TARGET: FLuc-C-HiBiT (firefly luciferase) (Photinus pyralis, UniProt P08659, form not given/L550V)
# ASSAY_OVERVIEW: SDR assay, FLuc-C-HiBiT
# ASSAY_SETUP: 10 nM FLuc-C-HiBiT; normalized activity; Log [Compound], M -6.87
VALUE_KIND: SDR + 10 mM ATP
Kindly provide the number alone.

Sample records with SDR + 10 mM ATP:
What measured SDR + 10 mM ATP goes with COc1ccc(-c2nc(-c3ccc(C(=O)O)cc3)no2)cc1 [compound 00168104] ?
44.7

What measured SDR + 10 mM ATP goes with CNC(=O)c1cccc2c1CCN2C(=O)Nc1ccc(C)cc1 [compound 00430160] ?
23.1

***
What measured SDR + 10 mM ATP goes with O=C(O)c1cccc2c1CCN2C(=O)Nc1ccc(F)cc1 [compound 00432687] ?
116.9

----------
# MEASUREMENT_TARGET: ABL1-N-HiBiT kinase domain (Homo sapiens, UniProt P00519)
# Sequence (P00519 233-500): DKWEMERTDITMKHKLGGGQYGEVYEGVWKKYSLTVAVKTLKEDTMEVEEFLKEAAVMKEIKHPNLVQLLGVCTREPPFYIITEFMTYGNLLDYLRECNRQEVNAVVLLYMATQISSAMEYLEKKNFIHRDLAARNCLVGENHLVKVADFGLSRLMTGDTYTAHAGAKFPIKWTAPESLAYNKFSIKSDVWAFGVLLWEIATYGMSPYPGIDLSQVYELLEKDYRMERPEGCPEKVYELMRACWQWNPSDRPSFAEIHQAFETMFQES
# ASSAY_OVERVIEW: ABL1 peptide phosphorylation, Kinase-Glo Plus (KGP) assay, ABL1-N-HiBiT
# Type: biochemical
# Design: containing amino acid residues Asp233-Ser500; His10 (N); made in house; host or cells: E. coli BL21(DE3)
# ASSAY_SETUP: ABL1, Kinase-Glo Plus (KGP); heatmap data, 128 kinase inhibitors
Structures can show the parent of a compound that is named as a salt.
VALUE_KIND: ABL1 KGP pIC50

[a] C#Cc1cccc(Nc2ncnc3cc4c(cc23)OCCOCCOCCO4)c1 [Icotinib HCl]
[b] CCn1c(=O)c(-c2ccc(Cl)cc2Cl)cc2cnc(Nc3ccc(N4CCNCC4)c(F)c3)nc21
I would appreciate it if you could say which entry, a or b , has the lower ABL1 KGP pIC50 value. Please indicate the selected item by its label.
a
(a: 4.86, b: 7.14)

----------
Examples of molecules with documented Efficacy (%) FLuc E follow.
# MEASUREMENT_TARGET: P. pyralis FLuc (Photinus pyralis)
# Sequence (P08659 whole entry): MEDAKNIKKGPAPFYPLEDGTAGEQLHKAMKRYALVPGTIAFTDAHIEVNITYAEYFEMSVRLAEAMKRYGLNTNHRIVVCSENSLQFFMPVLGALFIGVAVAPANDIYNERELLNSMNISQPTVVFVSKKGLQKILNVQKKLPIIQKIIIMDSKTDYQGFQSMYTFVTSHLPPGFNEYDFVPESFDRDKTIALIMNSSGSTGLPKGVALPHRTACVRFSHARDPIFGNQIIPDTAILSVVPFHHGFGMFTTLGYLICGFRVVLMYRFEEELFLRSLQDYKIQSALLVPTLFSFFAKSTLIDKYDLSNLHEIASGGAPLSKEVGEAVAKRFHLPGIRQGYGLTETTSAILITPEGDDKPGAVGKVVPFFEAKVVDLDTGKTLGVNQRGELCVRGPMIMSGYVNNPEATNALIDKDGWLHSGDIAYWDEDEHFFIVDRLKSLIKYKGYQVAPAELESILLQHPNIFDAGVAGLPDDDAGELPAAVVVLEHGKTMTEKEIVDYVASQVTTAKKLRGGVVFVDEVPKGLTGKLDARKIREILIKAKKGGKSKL
# ASSAY_OVERVIEW: FLuc enzymatic luminescence assay, P. pyralis FLuc
# Assay type: biochemical
# ASSAY_SETUP: FLuc enzymatic assay; Clade S follow-up
// units = %; emit number, no label

What measured Efficacy (%) FLuc E goes with Cc1ccc(NC(=O)C2CCN(C(=O)c3ncn4c3COC(c3ccccc3)C4)CC2)cc1C (stereo not shown) ?
-72.15

What measured Efficacy (%) FLuc E goes with O=C(NCc1ccco1)C1CCN(C(=O)c2ncn3c2COC(c2ccccc2)C3)CC1 (stereo not shown) ?
-97.55

What measured Efficacy (%) FLuc E goes with COc1ccc(C2Cn3cnc(C(=O)N4CCC(C(=O)NCC5CCCCC5)CC4)c3CO2)cc1 (stereo not shown) ?
-14.52

What measured Efficacy (%) FLuc E goes with O=C(NC1CCCCCC1)C1CCN(C(=O)c2ncn3c2COC(c2ccc(F)cc2)C3)CC1 (stereo not shown) ?
-10.94

What measured Efficacy (%) FLuc E goes with Cc1ccc(C2Cn3cnc(C(=O)N4CCC(C(=O)NCc5cccc(Cl)c5)CC4)c3CO2)cc1 (stereo not shown) ?
-30.33

What measured Efficacy (%) FLuc E goes with CC1CCC(NC(=O)C2CCN(C(=O)c3ncn4c3COC(c3ccc(F)cc3)C4)CC2)CC1 (stereo not shown) ?
-26.58

What measured Efficacy (%) FLuc E goes with O=C(NC1CC1)C1CCN(C(=O)c2ncn3c2COC(c2ccc(Cl)cc2)C3)CC1 (stereo not shown) ?
-28.68

What measured Efficacy (%) FLuc E goes with O=C(NCc1cc(F)ccc1F)C1CCN(C(=O)c2ncn3c2COC(c2ccccc2)C3)CC1 (stereo not shown) ?
-84.67

What measured Efficacy (%) FLuc E goes with CC(CNC(=O)C1CCN(C(=O)c2ncn3c2COC(c2ccccc2)C3)CC1)c1ccccc1 (stereo not shown) ?
-95.72

What measured Efficacy (%) FLuc E goes with CCCCNC(=O)C1CCN(C(=O)c2ncn3c2COC(c2ccc(OC)cc2)C3)CC1 (stereo not shown) ?
-10.96

What measured Efficacy (%) FLuc E goes with CC(NC(=O)C1CCN(C(=O)c2ncn3c2COC(c2ccc(Cl)cc2)C3)CC1)c1ccccc1 (stereo not shown) ?
-16.52

What measured Efficacy (%) FLuc E goes with COc1ccc(NC(=O)C2CCN(C(=O)c3ncn4c3COC(c3ccccc3)C4)CC2)cc1 (stereo not shown) ?
-79.86

What measured Efficacy (%) FLuc E goes with COc1ccc(C2Cn3cnc(C(=O)N4CCC(C(=O)NC5CCCC5)CC4)c3CO2)cc1 (stereo not shown) ?
0.00

What measured Efficacy (%) FLuc E goes with O=C(NCc1ccccc1F)C1CCN(C(=O)c2ncn3c2COC(c2ccc(F)cc2)C3)CC1 (stereo not shown) ?
-20.04

What measured Efficacy (%) FLuc E goes with CC(NC(=O)C1CCN(C(=O)c2ncn3c2COC(c2ccc(F)cc2)C3)CC1)c1ccccc1 (stereo not shown) ?
-12.35

What measured Efficacy (%) FLuc E goes with COc1ccc(C2Cn3cnc(C(=O)N4CCC(C(=O)NC5CCC(C)CC5)CC4)c3CO2)cc1 (stereo not shown) ?
0.00

----------
# MEASUREMENT_TARGET: FLuc-C-HiBiT (firefly luciferase) (Photinus pyralis, UniProt P08659, form not given/L550V)
# ASSAY_OVERVIEW: SDR assay, FLuc-C-HiBiT
# ASSAY_SETUP: 10 nM FLuc-C-HiBiT; normalized activity; Log [Compound], M -4.48
VALUE_KIND: SDR No ATP

Sample records with SDR No ATP:
What measured SDR No ATP goes with COc1ccc(-c2nc(-c3ccc(C(=O)O)cc3)no2)cc1 ?
74.7

What measured SDR No ATP goes with CC1CCCN(c2ncnc3c2cnn3-c2ccccc2)C1 (centres unmarked) ?
77.7

What measured SDR No ATP goes with O=C(O)c1cccc2c1CCN2C(=O)Nc1ccc(F)cc1 ?
102.2

[1] O=C(O)CCSc1nnc(-c2ccc(Cl)cc2Cl)o1
[2] Cc1ccc(-n2ncc3c(N4CCCCCC4)ncnc32)cc1
Hi team, can someone confirm which has the larger SDR No ATP: 1 or 2 ? Thanks. Please indicate the selected item by its label.
2
(2: 75.5, 1: 40.1)

----------
# MEASUREMENT_TARGET: FLuc-C-NLuc (firefly luciferase) (Photinus pyralis, UniProt P08659, form not given/L550V)
# ASSAY_OVERVIEW: SDR assay, FLuc-C-NLuc
# ASSAY_SETUP: Log[Compound], M -6.87; 10 mM ATP
Examples of molecules with documented SDR+ATP follow.
Kindly provide the number alone.

Sample records with SDR+ATP:
What measured SDR+ATP goes with CC(CNC(=O)C1CCN(C(=O)c2ncn3c2COC(c2ccccc2)C3)CC1)c1ccccc1 (centres unmarked) [compound 00449795] ?
11.14

What measured SDR+ATP goes with CC(NC(=O)C1CCN(C(=O)c2ncn3c2COC(c2ccc(F)cc2)C3)CC1)c1ccc(F)cc1 (centres unmarked) [NCGC00449825] ?
0.36

What measured SDR+ATP goes with COc1ccc(NC(=O)C2CCN(C(=O)c3ncn4c3COC(c3ccccc3)C4)CC2)cc1Cl (centres unmarked) [NCGC00449919] ?
18.65

What measured SDR+ATP goes with O=C(Nc1cccc(F)c1)C1CCN(C(=O)c2ncn3c2COC(c2ccccc2)C3)CC1 (centres unmarked) [NCGC00449914] ?
16.83

Let us examine a further case.
What measured SDR+ATP goes with CC1CCC(NC(=O)C2CCN(C(=O)c3ncn4c3COC(c3ccc(Cl)cc3)C4)CC2)CC1 (centres unmarked) [NCGC00449845] ?
-0.36
